# protocol: Maximum solubility in water by nephlometry
# Type: physicochemical
# assay.conditions: kinetic from dmso stock; Maximum solubility in water determined by nephlometry
Recorded measurements of solubility kinetic, one per entry
Kindly answer with a numeric value in µM, unit omitted.

Below, 3 compounds whose answers are already recorded.
- test.smiles: "Cc1ccc(Nc2cc(Nc3ccc(NC(=O)c4ccco4)cc3)nc(C)n2)cc1"
  unit.abbreviation: "µM"
  measurement: 25
- test.smiles: "CCNc1cc(Nc2ccc(NC(=O)c3ccco3)cc2)nc(C)n1"
  unit.abbreviation: "µM"
  measurement: 200
- test.smiles: "Cc1nc(Nc2ccc(NC(=O)c3ccco3)cc2)cc(N2CCCCC2)n1"
  unit.abbreviation: "µM"
  measurement: 50

Alright, here's another compound for you.
IN: Give reported solubility kinetic value for Cc1nc(Nc2ccc(NC(=O)c3ccco3)cc2)cc(-n2cccn2)n1
OUT: 12.5
